# measurementNotes: NCI Yeast Anticancer Drug Screen. Data for the sgs1 strain (AID 173)
# conditionsUsed: S. cerevisiae sgs1 mutant, at 11.0 µM
This is part of a sample that, as a whole, favours compounds with a hit. Of some 79,000 tested, about 15% had one in any assay. Calls of active or inactive are those of the source. Cut-off read from the data, not from the text of the source: active = growth inhibition above about 70%; inactive = the rest.
Outcome codes: active, inactive

- compound: "C=CC[N+]12CN3CN(CN(C3)C1)C2"
  classAssignment: "inactive"
- compound: "C[CH2][Sn]([CH2]C)([O]S(C)(=O)=O)[O]S(C)(=O)=O"
  classAssignment: "inactive"
- compound: "COc1ccc(/C=C(/C)[N+](=O)[O-])cc1"
  classAssignment: "inactive"
- compound: "Cc1nc2ccccc2cc1C[N+]12CN3CN(CN(C3)C1)C2"
  classAssignment: "inactive"
- compound: "COc1ccc(OC)c(/C=C/[N+](=O)[O-])c1"
  classAssignment: "inactive"
- compound: "Oc1cccc2cccnc12"
  classAssignment: "active"
- compound: "CC1(C)N=C(N)N=C(N)N1c1cccc(N)c1.[Sn]"
  classAssignment: "inactive"
- compound: "CSc1ccccc1[As](C)C"
  classAssignment: "active"
- compound: "C[C@@]12CCC(=O)C=C1CC[C@H]1C2=CC[C@]2(C)C1CC[C@@]2(C)O (stereo partly drawn)"
  classAssignment: "inactive"
- compound: "CNCC(O)c1ccc(O)c(O)c1.[Pt].c1ccc([PH+](c2ccccc2)c2ccccc2)cc1.c1ccc([PH+](c2ccccc2)c2ccccc2)cc1"
  classAssignment: "inactive"
- compound: "OC1(c2ccccc2)CC2CCC(C1)N2CCCC(O)(c1ccccc1)c1ccccc1 (stereo not drawn)"
  classAssignment: "inactive"
- compound: "O=[N+]([O-])c1ccc(N2CCC(CCCC3CCN(c4ccc([N+](=O)[O-])cc4[N+](=O)[O-])CC3)CC2)c([N+](=O)[O-])c1"
  classAssignment: "inactive"
- compound: "O=C1NC(=S)NC(=O)C1=Cc1ccc([N+](=O)[O-])o1"
  classAssignment: "inactive"
- compound: "CN(C)CCC(C(=O)C(Br)Br)(c1ccccc1)c1ccccc1"
  classAssignment: "active"
- compound: "COC(=O)C(F)C(Br)C(=O)OC (stereo not drawn)"
  classAssignment: "active"
- compound: "Cc1cc[n+](C2=C(Nc3cccc(C(F)(F)F)c3)C(=O)c3ccccc3C2=O)cc1"
  classAssignment: "inactive"
- compound: "Br[Se]c1ccccn1"
  classAssignment: "active"
- compound: "O=[N+]([O-])c1oc2ccc3ccccc3c2c1CCO"
  classAssignment: "active"
- compound: "O=[N+]([O-])c1ccc(-n2nc3ccc4c(no[n+]4[O-])c3[n+]2[O-])c([N+](=O)[O-])c1"
  classAssignment: "inactive"
- compound: "C[C@]12CCc3nonc3C1CC[C@@H]1C2CC[C@]2(C)C(=O)CCC12 (stereo partly drawn)"
  classAssignment: "inactive"
- compound: "c1cc2c(cc1C1OC[C@H]3[C@@H](c4ccc5c(c4)OCO5)OC[C@@H]13)OCO2 (stereo partly drawn)"
  classAssignment: "inactive"
- compound: "CCOP(=S)(S)OCC.[Pd]"
  classAssignment: "active"
- compound: "COC(=O)C1c2cc3c(c(O)c2C(O)CC1(C)O)C(=O)c1c(O)cc2c(c1C3=O)OC1OC2(C)C(O)C(N(C)C)C1O (stereo not drawn)"
  classAssignment: "inactive"
- compound: "CNC(=O)ON(C(C)=O)C(=O)NC"
  classAssignment: "inactive"
- compound: "CCS(=O)(=O)[O][Sn]([CH2]C)([CH2]C)[O]S(=O)(=O)CC"
  classAssignment: "inactive"
- compound: "CC1CN1C1=C(Cl)C(=O)C(N2CC2C)=C(Cl)C1=O (stereo not drawn)"
  classAssignment: "active"
- compound: "C[N+]1(CCCl)CC[N+](C)(CCCl)CC1 (stereo not drawn)"
  classAssignment: "inactive"
- compound: "O=P(CCCCP(=O)(c1ccccc1)c1ccccc1)(c1ccccc1)c1ccccc1.[Cl][Sn]([Cl])([c]1ccccc1)[c]1ccccc1"
  classAssignment: "inactive"
- compound: "O=C(O)CCCc1cc(I)c(N(CCCl)CCCl)c(I)c1"
  classAssignment: "inactive"
- compound: "OC1CCCC2CCC[N-]C12.OC1CCCC2CCC[N-]C12.[O]=[V][OH] (stereo not drawn)"
  classAssignment: "active"
- compound: "COC1C(O)C(C)OC(OC2C(Oc3cccc4c(O)c5c(=O)oc6ccc(C)c7c(=O)oc(c34)c5c67)OC(C)C(O)C2O)C1O (stereo not drawn)"
  classAssignment: "inactive"
- compound: "CC1(Cl)CC(C)(/C=C/Cl)C(Cl)CC1Cl (stereo not drawn)"
  classAssignment: "inactive"
- compound: "NNc1ccccc1Cl"
  classAssignment: "active"
- compound: "Nc1nnc(N)n1-n1c(N)nnc1N"
  classAssignment: "inactive"
- compound: "CC1=C(N2CC2)C(=O)c2ccccc2C1=O"
  classAssignment: "inactive"
- compound: "CCOC(=O)C1([Se]c2ccccc2)CCCC1=O (stereo not drawn)"
  classAssignment: "inactive"
- compound: "O=Cc1ccc(C(F)(F)F)cc1.[C-]#[O+].[C-]#[O+].[C-]#[O+].[Cr]"
  classAssignment: "inactive"
- compound: "CCN(CCCl)c1cc(CN(C)C)cc(NC(=O)c2ccc(C(=O)Nc3cc(CN(C)C)cc(N(CC)CCCl)c3)cc2)c1"
  classAssignment: "inactive"
- compound: "O=C1C=C(CN(CCCl)CCCl)C(=O)C=C1CN(CCCl)CCCl"
  classAssignment: "inactive"
- compound: "C[C@]12CCC3[C@@H](CC[C@@H]4c5nonc5CC[C@]34C)C1CCC2=O (stereo partly drawn)"
  classAssignment: "inactive"
- compound: "CCCN(CCC)c1c([N+](=O)[O-])cc(S(N)(=O)=O)cc1[N+](=O)[O-]"
  classAssignment: "inactive"
- compound: "CC1=C(O)C(=O)C=C2C1=CC=C1[C@@]2(C)CCC2(C)[C@@H]3C[C@@H](C)C(=O)C[C@]3(C)CC[C@]12C (stereo partly drawn)"
  classAssignment: "active"
- compound: "CN(N=O)C(=O)NNC(=O)N(C)N=O"
  classAssignment: "inactive"
